test: Pharmacokinetic experiment in rats; assay type: in vivo; details: rat, po; male SD rats, intragastrically 3 mg/kg, plasma
OBSERVED PROPERTY: AUC(0-t) (ng·h/mL)

MOLECULE: Cn1c(=O)oc2ccc(-c3ccc(C[C@@H](C#N)NC(=O)[C@@H]4CNCCCO4)cc3)cc21 [INS1007, reference compound]
ENDPOINT UNIT: ng·h/mL
AUC(0-t): 22200
--
MOLECULE: Cn1c(=O)oc2ccc(-c3ccc(C[C@@H](C#N)NC(=O)[C@@H]4CNCCCO4)c(F)c3)cc21
ENDPOINT UNIT: ng·h/mL
AUC(0-t): 31200

###

target: Recombinant human DPP1 enzyme (Homo sapiens (Human), UniProt P53634); experiment: In vitro DPP1 enzyme activity assay; settings: recombinant human DPP1 activated with cathepsin L, substrate Gly-Arg-AMC, fluorescence; read-out: DPP1 inhibitory activity IC50
Sequence (P53634 25-134): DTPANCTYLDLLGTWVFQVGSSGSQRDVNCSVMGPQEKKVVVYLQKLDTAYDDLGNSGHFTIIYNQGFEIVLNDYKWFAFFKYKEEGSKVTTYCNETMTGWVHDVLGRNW
Sequence (P53634 231-394): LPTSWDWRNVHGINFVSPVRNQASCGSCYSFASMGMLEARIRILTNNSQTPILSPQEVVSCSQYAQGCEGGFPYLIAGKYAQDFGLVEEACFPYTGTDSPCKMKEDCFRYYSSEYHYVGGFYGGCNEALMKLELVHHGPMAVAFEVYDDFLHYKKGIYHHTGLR
Sequence (P53634 395-463): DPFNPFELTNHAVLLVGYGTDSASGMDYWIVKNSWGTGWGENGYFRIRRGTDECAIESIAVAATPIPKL
pIC50: −log10 of the molar value.
OBSERVED PROPERTY: pIC50

Example entries begin here.
MOLECULE: COC1CNCC(C(=O)N[C@H](C#N)Cc2ccc(-c3ccc(S(F)(F)(F)(F)F)cc3)cc2F)OC1 (stereo partly shown)
TARGET: Recombinant human DPP1 enzyme (Homo sapiens (Human), UniProt P53634)
pIC50: 9.52

MOLECULE: N#Cc1ccc(-c2ccc(C[C@@H](C#N)NC(=O)[C@@H]3CNCCCO3)c(F)c2)cc1C(F)(F)F
TARGET: Recombinant human DPP1 enzyme (Homo sapiens (Human), UniProt P53634)
pIC50: 8.31

A. N#C[C@H](Cc1ccc(-c2ccc3c(c2)CCNC3=O)cc1F)NC(=O)[C@@H]1CNCCCO1
B. N#C[C@H](Cc1ccc(-c2nc3ccccc3s2)cc1F)NC(=O)[C@@H]1CNCCCO1
**Query** Which record would sort first by descending pIC50, A or B ? # respond with the chosen item's label
**Result** A
(A: 8.17, B: 7.15)

###

test: Pharmacokinetic experiment in rats; format: in vivo; conditions: rat, iv; male SD rats, intravenously 1 mg/kg, plasma
OBSERVED PROPERTY: AUC(0-t) (ng·h/mL)

COMPOUND: Cn1c(=O)oc2ccc(-c3ccc(C[C@@H](C#N)NC(=O)[C@@H]4CNCCCO4)c(F)c3)cc21
AUC(0-t), ng·h/mL: 9500
//
COMPOUND: Cn1c(=O)oc2ccc(-c3ccc(C[C@@H](C#N)NC(=O)[C@@H]4CNCCCO4)cc3)cc21 [INS1007, reference compound]
AUC(0-t), ng·h/mL: 8400

###

test: Pharmacokinetic experiment in rats; assay type: in vivo; conditions: rat, plasma, po; male SD rats, intragastrically 3 mg/kg
OBSERVED PROPERTY: bioavailability (%)
Give the value, in units of %, as a plain number.

**Query** Using the record for Cn1c(=O)oc2ccc(-c3ccc(C[C@@H](C#N)NC(=O)[C@@H]4CNCCCO4)cc3)cc21 [INS1007, reference compound] , state its measured bioavailability.
**Result** 88.1

###

target: Recombinant human DPP1 enzyme (Homo sapiens (Human)); test: In vitro DPP1 enzyme activity assay; conditions: recombinant human DPP1 activated with cathepsin L, substrate Gly-Arg-AMC, fluorescence; read-out: DPP1 inhibitory activity IC50
pIC50: −log10 of the molar value.
OBSERVED PROPERTY: pIC50

Example entries begin here.
MOL: N#Cc1ccc(-c2ccc(C[C@@H](C#N)NC(=O)[C@@H]3CNCCCO3)c(F)c2)cc1C1CC1
pIC50: 8.13
//
MOL: Cc1nc(-c2ccc(C[C@@H](C#N)NC(=O)[C@@H]3CNCCCO3)c(F)c2)sc1C#N
pIC50: 7.68

a. CN1CCN(Cc2ccc(-c3ccc(C[C@@H](C#N)NC(=O)[C@@H]4CNCCCO4)c(F)c3)cc2)CC1
b. Cc1csc(-c2ccc(C[C@@H](C#N)NC(=O)[C@@H]3CNCCCO3)c(F)c2)n1
c. Cn1c(=O)oc2ccc(-c3cc(F)c(C[C@@H](C#N)NC(=O)[C@@H]4CNCCCO4)cn3)cc21
d. N#C[C@H](Cc1ccc(C#CC2CCCC2)cc1F)NC(=O)[C@@H]1CNCCCO1
**Query** Sequence the entries by pIC50, beginning with the highest number. Write the labels in rank order as requested.
**Result** c, a, b, d
(c: 8.40, a: 7.89, b: 7.48, d: 6.62)
